Data provenance: the supplement of paper PMC8728848

- assayed target: Gal(b1-4)GlcNAc(b1-2)Man(a1-3)[GlcNAc(b1-2)Man(a1-6)]Man(b1-4)GlcNAc(b1-4)GlcNAc
- protocol notes: glycan array binding signal (z-score within array); higher = stronger binding
- stated conditions: glycan notation: IUPAC condensed, linker removed
The sample as a whole holds a higher share of the strongest signals than the screen did.
measure: glycan array binding signal (z-score)
Would you mind answering with just the numeric figure?

Could you share which glycan array binding signal (z-score) value was measured for LecB PA14 (Pseudomonas aeruginosa) (protein) MATQGVFTLPANTQFGVTAFANSAGTQTVNVQVNNETVATFTGQSTNNAIIGSKVLNSGGGGKVQILVSVNGRSSDLVSAQVILANELNFALVGSEDSTDNDYNDAVVVINWPLG ?
0.016
